measurement conditions: pH 2.7, LogP, HPLC on reversed phase columns, pH 2.7, 0.1% formic acid in water / acetonitrile gradient

{"compound": "CC(C)CCOC(=O)Nc1cccc(CON=C(c2ccccc2)c2nc(=O)on2C)n1", "chromatographic logP": 3.74}
{"compound": "CCCCCCNc1cccc(CON=C(c2ccccc2)c2nc(=O)on2C)n1", "chromatographic logP": 2.2}
{"compound": "C#CCC(C)(C)OC(=O)Nc1cccc(CO/N=C(/c2ccccc2)c2nc(=O)on2C)n1", "chromatographic logP": 3.31}
{"compound": "CCCCOC(=O)Nc1cccc(CON=C(c2cccc(F)c2F)c2nc(=O)on2C)n1", "chromatographic logP": 3.46}
{"compound": "C#CCCOC(=O)Nc1cccc(CON=C(c2cccc(C)c2)c2nc(=O)on2C)n1", "chromatographic logP": 2.96}
{"compound": "CCCCCCC(=O)Nc1cccc(CON=C(c2cccc(C)c2)c2nc(=O)on2C)n1", "chromatographic logP": 3.96}
{"compound": "CCCCCOC(=O)Nc1cccc(CON=C(c2ccccc2)c2nc(=O)on2C)n1", "chromatographic logP": 3.81}
{"compound": "Cn1oc(=O)nc1C(=NOCc1cccc(NC(=O)OCc2ccccc2)n1)c1ccccc1", "chromatographic logP": 3.41}
{"compound": "Cn1oc(=O)nc1C(=NOCc1cccc(NC(=O)OC(C)(C)C)n1)c1cccc(F)c1F", "chromatographic logP": 3.39}
{"compound": "CCCCOC(=O)Nc1cccc(CON=C(c2ccccc2)c2nc(=O)on2C)n1", "chromatographic logP": 3.39}
{"compound": "Cn1oc(=O)nc1C(=NOCc1cccc(NC(=O)OCCCCCl)n1)c1ccccc1", "chromatographic logP": 3.27}
{"compound": "Cn1oc(=O)nc1C(=NOCc1cccc(NC(=O)CCc2ccccc2)n1)c1ccccc1", "chromatographic logP": 3.21}
{"compound": "Cn1oc(=O)nc1C(=NOCc1cccc(NC(=O)OC2CCCCC2)n1)c1ccccc1", "chromatographic logP": 3.81}
{"compound": "CC(C)CC(=O)Nc1cccc(CON=C(c2cccc(F)c2)c2nc(=O)on2C)n1", "chromatographic logP": 2.92}
{"compound": "Cn1oc(=O)nc1C(=NOCc1cccc(NC(=O)c2ccc(F)cc2)n1)c1ccccc1", "chromatographic logP": 3.04}
{"compound": "Cn1oc(=O)nc1C(=NOCc1cccc(NC(=O)OCC(C)(C)C)n1)c1ccccc1", "chromatographic logP": 3.7}
{"compound": "COc1cccc(C(=NOCc2cccc(N)n2)c2nc(=O)on2C)c1", "chromatographic logP": 1.03}
{"compound": "COc1cccc(C(=O)Nc2cccc(CON=C(c3cccc(F)c3)c3nc(=O)o[nH]3)n2)c1", "chromatographic logP": 3.13}
{"compound": "CC(Oc1ccccc1)C(=O)Nc1cccc(CON=C(c2cccc(F)c2)c2nc(=O)on2C)n1 (stereo not drawn)", "chromatographic logP": 3.44}
{"compound": "Cn1oc(=O)nc1C(=NOCc1cccc(NC(=O)SC(C)(C)C)n1)c1ccccc1", "chromatographic logP": 3.73}
{"compound": "CCCCCCC(=O)Nc1cccc(CON=C(c2cccc(F)c2)c2nc(=O)o[nH]2)n1", "chromatographic logP": 3.76}
{"compound": "Cn1oc(=O)nc1C(=NOCc1cccc(NC(=O)c2ccccc2)n1)c1cccc(F)c1", "chromatographic logP": 3}
{"compound": "C#CCC(C)OC(=O)Nc1cccc(CON=C(c2ccccc2)c2nc(=O)on2C)n1 (stereo not drawn)", "chromatographic logP": 2.98}
{"compound": "Cn1oc(=O)nc1C(=NOCc1cccc(NC(=O)Cc2ccccc2)n1)c1ccccc1", "chromatographic logP": 2.94}
{"compound": "Cn1oc(=O)nc1/C(=N\\OCc1cccc(NC(=O)OCCc2ccccc2)n1)c1ccccc1", "chromatographic logP": 3.57}
{"compound": "CC(OC(=O)Nc1cccc(CON=C(c2ccccc2)c2nc(=O)on2C)n1)C1CCCCC1 (stereo not drawn)", "chromatographic logP": 4.56}
{"compound": "Cn1oc(=O)nc1C(=NOCc1cccc(NC(=O)OCc2ccccc2)n1)c1cccc(F)c1", "chromatographic logP": 3.5}
{"compound": "Cc1cccc(C(=NOCc2cccc(NC(=O)OCCC(C)C)n2)c2nc(=O)on2C)c1", "chromatographic logP": 4.03}
{"compound": "COc1ccc(CC(=O)Nc2cccc(CON=C(c3cccc(F)c3F)c3nc(=O)on3C)n2)cc1", "chromatographic logP": 2.98}
{"compound": "C#CCCCC(=O)Nc1cccc(CON=C(c2ccccc2)c2nc(=O)on2C)n1", "chromatographic logP": 2.6}
{"compound": "COc1cccc(C(=O)Nc2cccc(CON=C(c3ccccc3)c3nc(=O)on3C)n2)c1", "chromatographic logP": 3.02}
{"compound": "CCCCSC(=S)Nc1cccc(CON=C(c2ccccc2)c2nc(=O)on2C)n1", "chromatographic logP": 4.15}
{"compound": "C=CCCCOC(=O)Nc1cccc(CON=C(c2ccccc2)c2nc(=O)on2C)n1", "chromatographic logP": 3.41}

====

measurement conditions: pH 2.7, LogP, HPLC on reversed phase columns, pH 2.7, 0.1% formic acid in water / acetonitrile gradient; compounds of formula (V), Table 2
endpoint name: chromatographic logP

{"mol": "CCN(O)C(=N)/C(=N\\OCc1cccc(NC(=O)OC(C)(C)C)n1)c1ccccc1", "endpoint name": "chromatographic logP", "endpoint value": 1.9}
{"mol": "Cc1cccc(C(=NOCc2cccc(NC(=O)OC(C)(C)C)n2)C(=N)N(C)O)c1", "endpoint name": "chromatographic logP", "endpoint value": 1.93}
{"mol": "COc1cccc(C(=NOCc2cccc(NC(=O)OC(C)(C)C)n2)C(=N)N(C)O)c1", "endpoint name": "chromatographic logP", "endpoint value": 1.86}
{"mol": "CC(C)N(O)C(=N)C(=NOCc1cccc(NC(=O)OC(C)(C)C)n1)c1ccccc1", "endpoint name": "chromatographic logP", "endpoint value": 2.05}

====

Listing of recorded chromatographic logP by entry.
measurement conditions: pH 2.7, LogP, HPLC on reversed phase columns, pH 2.7, 0.1% formic acid in water / acetonitrile gradient

{"compound": "Cn1oc(=O)nc1C(=NOCc1cccc(NCC2CCCCC2)n1)c1ccccc1", "chromatographic logP": 2.44}
{"compound": "CC#CCCOC(=O)Nc1cccc(CON=C(c2ccccc2)c2nc(=O)on2C)n1", "chromatographic logP": 3}
{"compound": "Cn1oc(=O)nc1C(=NOCc1cccc(NC(=O)OCCCCl)n1)c1ccccc1", "chromatographic logP": 3.02}
{"compound": "COc1cccc(C(=O)Nc2cccc(CON=C(c3cccc(OC)c3)c3nc(=O)o[nH]3)n2)c1", "chromatographic logP": 3.06}
{"compound": "C#CCOC(=O)Nc1cccc(CON=C(c2cccc(F)c2)c2nc(=O)o[nH]2)n1", "chromatographic logP": 2.69}
{"compound": "CCCCCC(=O)Nc1cccc(CON=C(c2ccccc2)c2nc(=O)on2CC)n1", "chromatographic logP": 3.52}
{"compound": "CCCCOC(=O)Nc1cccc(CON=C(c2cccc(C)c2)c2nc(=O)on2C)n1", "chromatographic logP": 3.69}
{"compound": "CCCCCOC(=O)Nc1cccc(CON=C(c2cccc(OC)c2)c2nc(=O)on2C)n1", "chromatographic logP": 3.83}
{"compound": "COc1cccc(C(=NOCc2cccc(NC(=O)c3ccc(C)cc3)n2)c2nc(=O)on2C)c1", "chromatographic logP": 3.27}
{"compound": "C#CCCOC(=O)Nc1cccc(CON=C(c2cccc(F)c2F)c2nc(=O)on2C)n1", "chromatographic logP": 2.78}
{"compound": "C#CCC(C)OC(=O)Nc1cccc(CON=C(c2cccc(F)c2)c2nc(=O)on2C)n1 (stereo not drawn)", "chromatographic logP": 3.09}
{"compound": "Cn1oc(=O)nc1C(=NOCc1cccc(NC(=O)COc2ccccc2)n1)c1ccccc1", "chromatographic logP": 3.13}
{"compound": "Cn1oc(=O)nc1/C(=N\\OCc1cccc(N)n1)c1ccccc1", "chromatographic logP": 0.84}
{"compound": "CCC(C)(C)C(=O)Nc1cccc(CON=C(c2ccccc2)c2nc(=O)on2C)n1", "chromatographic logP": 3.17}
{"compound": "CCCCC(=O)Nc1cccc(CON=C(c2cccc(F)c2)c2nc(=O)o[nH]2)n1", "chromatographic logP": 2.98}
{"compound": "COc1cccc(C(=NOCc2cccc(NC(=O)CCc3ccccc3)n2)c2nc(=O)on2C)c1", "chromatographic logP": 3.27}
{"compound": "Cc1cccc(C(=NOCc2cccc(NC(=O)C(C)(C)C)n2)c2nc(=O)on2C)c1", "chromatographic logP": 3.17}
{"compound": "Cc1cccc(C(=NOCc2cccc(NC(=O)c3ccccc3)n2)c2nc(=O)on2C)c1", "chromatographic logP": 3.21}
{"compound": "COc1ccc(CC(=O)Nc2cccc(CON=C(c3cccc(C)c3)c3nc(=O)on3C)n2)cc1", "chromatographic logP": 3.19}
{"compound": "Cn1oc(=O)nc1C(=NOCc1cccc(NC(=O)c2cccc(F)c2)n1)c1ccccc1", "chromatographic logP": 3.11}
{"compound": "CC(C)n1oc(=O)nc1C(=NOCc1cccc(NC(=O)OC(C)(C)C)n1)c1ccccc1", "chromatographic logP": 3.8}
{"compound": "COc1ccc(CC(=O)Nc2cccc(CON=C(c3cccc(F)c3)c3nc(=O)o[nH]3)n2)cc1", "chromatographic logP": 3}
{"compound": "CCCCC(=O)Nc1cccc(CON=C(c2cccc(C)c2)c2nc(=O)on2C)n1", "chromatographic logP": 3.19}
{"compound": "Cc1ccc(C(=O)Nc2cccc(CON=C(c3ccccc3)c3nc(=O)on3C)n2)cc1", "chromatographic logP": 3.23}
{"compound": "C#CCCOC(=O)Nc1cccc(CON=C(c2cccc(OC)c2)c2nc(=O)on2C)n1", "chromatographic logP": 2.75}
{"compound": "Cc1cccc(C(=O)Nc2cccc(CON=C(c3ccccc3)c3nc(=O)on3C)n2)c1", "chromatographic logP": 3.27}
{"compound": "CCn1oc(=O)nc1C(=NOCc1cccc(N)n1)c1ccccc1", "chromatographic logP": 1.07}
{"compound": "O=C(Cc1ccccc1)Nc1cccc(CON=C(c2cccc(F)c2)c2nc(=O)o[nH]2)n1", "chromatographic logP": 3.04}
{"compound": "Cn1oc(=O)nc1C(=NOCc1cccc(NC(=O)OCCCC2CCCC2)n1)c1ccccc1", "chromatographic logP": 4.68}
{"compound": "CCCCC(=O)Nc1cccc(CON=C(c2cccc(OC)c2)c2nc(=O)o[nH]2)n1", "chromatographic logP": 2.96}
{"compound": "Cn1oc(=O)nc1C(=NOCc1cccc(NC(=O)c2csc3ccccc23)n1)c1ccccc1", "chromatographic logP": 3.65}
{"compound": "Cn1oc(=O)nc1C(=NOCc1cccc(NCCc2ccccc2)n1)c1ccccc1", "chromatographic logP": 2.23}
{"compound": "CC(C(=O)Nc1cccc(CON=C(c2ccccc2)c2nc(=O)on2C)n1)c1ccccc1 (stereo not drawn)", "chromatographic logP": 3.29}
